Some compounds, each annotated with its measured AC50.
testTarget: His6-TEV-PPARγ-(234-505) (Homo sapiens, UniProt P37231)
Construct: The His6-TEV-PPARγ-(234-505) protein for assay was expressed and purified; TEV cleavage site (N); made in house
Sequence (P37231 234-505): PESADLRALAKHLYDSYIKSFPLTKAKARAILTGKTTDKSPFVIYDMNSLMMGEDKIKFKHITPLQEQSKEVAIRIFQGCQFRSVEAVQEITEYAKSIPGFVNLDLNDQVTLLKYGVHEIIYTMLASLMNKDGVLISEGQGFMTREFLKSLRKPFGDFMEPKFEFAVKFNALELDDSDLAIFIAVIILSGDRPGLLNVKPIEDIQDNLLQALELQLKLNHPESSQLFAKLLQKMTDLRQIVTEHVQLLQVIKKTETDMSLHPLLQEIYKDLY
methodSummary: TR-FRET Assay to Measure Co-R Peptide Recruitment to PPARγ
Type: biochemical
appliedConditions: Co-R peptide (SMRT-ID2) recruitment; top final concentration 20 μM; read-out: TR-FRET i-Ag; AC50
# include the unit after the value

Use the examples below as a reference point.
{"compound": "COc1cc(-c2cc(C(=O)N3CCC(C(=O)NC4CCCn5cc(C(F)(F)F)nc54)CC34CC4)n[nH]2)c(F)cn1 (mixture of isomers) [Example 502]", "obsValue": "11.8 nM"}
{"compound": "COc1cc(-c2cc(C(=O)N3CCC(C(=O)NCc4ccc5[nH]nc(F)c5c4)CC3)n[nH]2)c(F)cn1 [Example 200]", "obsValue": "112 nM"}
{"compound": "COc1cc(-c2cc(C(=O)N3CC[C@H](C(=O)NCc4nc(N5C[C@@H](C)N(C)[C@@H](C)C5)oc4C(F)(F)F)CC34CC4)n[nH]2)c(F)cn1 [Example 485]", "obsValue": "26.7 nM"}
{"compound": "COc1cc(-c2cc(C(=O)N3CCC(C(=O)NCC4CC(F)(F)CO4)CC3)n[nH]2)c(Cl)cn1 (racemic) [Example 220]", "obsValue": "286 nM"}
{"compound": "CCO[C@]1(C(F)(F)F)CC[C@H](NC(=O)[C@H]2CCN(C(=O)c3cc(-c4cc(C)ncn4)[nH]n3)C3(CC3)C2)CC1 (single isomer, unassigned) [Example 308-D]", "obsValue": "25.6 nM"}

Note down AC50 recorded for COc1cc(-c2cc(C(=O)N3CCC(C(=O)NC4(C)CCC(C)CC4)CC3)n[nH]2)c(Cl)cn1 (mixture of isomers) [Example 163]
447 nM

Note down AC50 recorded for COc1cc(-c2cc(C(=O)N3CC[C@H](C(=O)NC4CCN(c5ccc(C#N)nc5)C4)CC34CC4)n[nH]2)c(F)cn1 (stereo partly drawn) [Example 488]
0.9 nM

Note down AC50 recorded for COc1cc(-c2cc(C(=O)N3CCC(C(=O)NC4CCN(c5ccccc5)C4=O)CC3)n[nH]2)c(Cl)cn1 (racemic) [Example 207]
889 nM

Note down AC50 recorded for COc1cnc(CNC(=O)C2CCN(C(=O)c3cc(-c4cc(C)ncc4F)[nH]n3)C3(CC3)C2)c(Cl)c1 (racemic) [Example 484]
3.8 nM

Note down AC50 recorded for COc1cc(-c2cc(C(=O)N3CC[C@H](C(=O)NCc4nc(N5C[C@@H](C)N[C@@H](C)C5)oc4C(F)(F)F)CC34CC4)n[nH]2)c(F)cn1 [Example 482]
29.5 nM

Note down AC50 recorded for COc1cc(-c2cc(C(=O)N3CCC(C(=O)NC4CCOc5ccc(C)nc54)CC34CC4)n[nH]2)c(F)cn1 (mixture of isomers) [Example 380]
30.6 nM

Note down AC50 recorded for COc1cc(-c2cc(C(=O)N3CCC(C(=O)Nc4cnn5cc(C(C)O)ccc45)CC34CC4)n[nH]2)c(F)cn1 (mixture of isomers) [Example 495]
15.7 nM
